Origin of measurements: ChEMBL document CHEMBL1131034

assayed-system: Serotonin 1a (5-HT1a) receptor/Adrenergic receptor alpha-1 (Rattus norvegicus) (UniProt P15823+P23944+P43140+P19327)
procedure-summary: Selectivity for 5-HT1A receptor of rat hippocampus and alpha-1 adrenergic receptor of rat cortex.
Type: tissue-based
property: Selectivity

Examples with answers:
[
  {
    "compound": "O=C1CCOc2c(OCCNCCCCc3ccc([N+](=O)[O-])cc3)cc(F)cc21",
    "Selectivity": 13
  },
  {
    "compound": "COc1ccc(CCCCNCCOc2cc(F)cc3c2OCC=C3)cc1",
    "Selectivity": 52
  },
  {
    "compound": "O=C1CCOc2c(OCCNCCCCc3ccc4c(c3)CCO4)cc(F)cc21",
    "Selectivity": 40
  },
  {
    "compound": "COc1ccc(CCCNCCOc2cc(F)cc3c2OC(C)CC3)cc1 (stereo not drawn)",
    "Selectivity": 2.1
  },
  {
    "compound": "O=C1CCOc2c(OCCNCCCCc3ccccc3)cc(F)cc21",
    "Selectivity": 2.2
  }
]

A. COc1ccc(CCNCCOc2cc(F)cc3c2OCCC3O)cc1 (stereo not drawn)
B. COc1ccccc1CCCCNCCOc1cc(F)cc2c1OCCC2=O
C. COc1ccc(CCCCNCCOc2cc(F)cc3c2OCCC3O)cc1 (single isomer, unassigned; (+))
Rank the 3 compounds: largest Selectivity first, smallest last. Write the labels in rank order as requested. C, A, B

* * *

assayed-system: Serotonin 1a (5-HT1a) receptor/Adrenergic receptor alpha-1 (Rattus norvegicus) (UniProt P15823+P23944+P43140+P19327)
procedure-summary: Selectivity for 5-HT1A receptor of rat hippocampus and alpha-1 adrenergic receptor of rat cortex.
Assay type: tissue-based
property: Selectivity

Recorded results for 6 compounds are shown here.
[
  {
    "compound": "COc1ccc(CCCCNCCOc2cc(F)cc3c2OCCC3)cc1",
    "observed-result": 12
  },
  {
    "compound": "COc1ccc(CCCCNCCOc2cc(F)cc3c2OCCC3O)cc1 (stereo in doubt; (-)-34)",
    "observed-result": 19
  },
  {
    "compound": "COc1ccc(CCCCNCCOc2cc(F)cc3c2OCCC3=O)c2ccccc12",
    "observed-result": 0.29
  },
  {
    "compound": "O=C1CCOc2c(OCCNCCCCc3ccc4c(c3)OCCO4)cc(F)cc21",
    "observed-result": 120
  },
  {
    "compound": "COc1ccc(CCCCNCCOc2cc(F)cc3c2OCCC3O)cc1 (stereo in doubt; 34)",
    "observed-result": 15
  },
  {
    "compound": "COc1ccc(CCCCNCCOc2cc(F)cc3c2OCCC3=O)c(C)c1C",
    "observed-result": 2
  }
]

1. COc1ccc(CCCCN(C)CCOc2cc(F)cc3c2OCCC3=O)cc1
2. COc1ccc(CCCCCNCCOc2cc(F)cc3c2OC(C)CC3)cc1 (configuration not stated)
Out of 1 and 2 , name the one with the higher Selectivity. Pick one; state its label. 1
(1: 26, 2: 2.6)

* * *

procedure-summary: Binding affinity (Ki) ratio of D2 receptor of rat striatum and 5-HT1A receptor of rat hippocampus.
Type: tissue-based
property: Ratio

[
  {
    "compound": "CN(C)c1ccc(CCCCNCCOc2cc(F)cc3c2OCCC3=O)cc1",
    "Ratio": 1.2
  }
]

a. COc1ccc(CCCCNCCOc2cc(F)cc3c2OCCC3O)cc1 (single isomer, unassigned; (+))
b. COc1ccc(CCNCCOc2cc(F)cc3c2OCCC3O)cc1 (stereo not drawn)
Which value of Ratio is smaller, the one for a or the one for b ? Kindly state the label of the option you pick. a
